assay: kinetic / aqueous solubility; assay type: physicochemical; settings: aqueous medium, pH 2.2, pH 2.2, aqueous buffer, kinetic from dmso stock; read-out: Kinetic solubility (pH = 2.2)

compound: Cn1cc2c(-c3cc(F)c(CN4Cc5ncccc5C4=O)c(F)c3)ccc(C(C)(C)O)c2n1 [compound 7]
solubility kinetic [µM]: 81.5

compound: Cn1cc2c(-c3cc(F)c(CN4Cc5ncccc5C4=O)c(F)c3)cccc2n1 [compound 1, reference compound]
solubility kinetic [µM]: 80.1

====

Assay: 14-day rat toxicology and toxicokinetic study
Format: in vivo
Conditions: both sexes, rat, plasma, po, 300 mg/kg, Day 1, 300 mg/kg PO, PEG-400, rat
Method: PAM 7, after a 250 g scale-up, advanced into 14-day rat toxicology studies, with vehicle (PEG-400), 30 mg/kg PO and 300 mg/kg PO cohorts, N = 6 per sex per cohort. […] Higher serum creatinine concentrations were however noted in males at both dose levels (+100% at 30 mg/kg/day and +300% at 300 mg/kg/day). […]

compoundString: Cn1cc2c(-c3cc(F)c(CN4Cc5ncccc5C4=O)c(F)c3)ccc(C(C)(C)O)c2n1
AUC(0-t) [µM·h]: 758
